This collection of values is drawn from patent US12247015B2.

- TESTED_ON: hMRGX2 (CHO-K1 cells overexpressing MRGX2) (Homo sapiens (Human), UniProt Q96LB1)
- Sequence (Q96LB1 whole entry): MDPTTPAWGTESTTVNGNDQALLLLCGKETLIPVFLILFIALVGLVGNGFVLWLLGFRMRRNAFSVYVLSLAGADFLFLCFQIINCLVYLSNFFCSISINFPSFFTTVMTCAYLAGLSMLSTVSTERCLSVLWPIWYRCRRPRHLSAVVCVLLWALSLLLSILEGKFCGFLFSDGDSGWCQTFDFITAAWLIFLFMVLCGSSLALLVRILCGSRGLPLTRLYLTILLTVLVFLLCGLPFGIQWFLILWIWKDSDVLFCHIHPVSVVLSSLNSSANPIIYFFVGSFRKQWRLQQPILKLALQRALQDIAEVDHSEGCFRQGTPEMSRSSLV
- ASSAY_NAME: In vitro inhibition (EC50) of intracellular calcium flux, FLIPR Tetra, substance P stimulation
- Type: cell-based
- CONDITION_DESCRIPTION: stimulated with MRGX2 ligand substance P, FLIPR Calcium 5, read-out: hMRGX2 Cellular Potency (pEC50) (converted)
RECORDED_METRIC: EC50 (nM)

COMPOUND: Cc1n[nH]cc1-c1cccc2c1NC(Nc1ccc(C(C)C)cc1)=NS2(=O)=O
REPORTED_RESULT: 70.1

COMPOUND: CCC(CNC1=NS(=O)(=O)c2cccc(-c3cc(F)cc(F)c3)c2N1)OC (stereo not drawn)
REPORTED_RESULT: 240

COMPOUND: O=S1(=O)N=C(NCc2ccccn2)Nc2c(-c3cc(F)cc(F)c3)cccc21
REPORTED_RESULT: 423

COMPOUND: CC(C)c1ccc(NC2=NS(=O)(=O)c3cccc(-c4cnn(C5COC5)c4)c3N2)cc1
REPORTED_RESULT: 45.7

COMPOUND: O=S1(=O)N=C(NCc2ccccn2)Nc2c(-c3cc(F)cc(F)c3F)cccc21
REPORTED_RESULT: 88.5

COMPOUND: O=S1(=O)N=C(NCc2ccc(F)cc2)Nc2c(-c3ccnc(F)c3Cl)cccc21
REPORTED_RESULT: 13.2

COMPOUND: CCc1ccc(NC2=NS(=O)(=O)c3cccc(-c4cnn(C)c4)c3N2)cc1
REPORTED_RESULT: 119

COMPOUND: CNC1=NS(=O)(=O)c2cccc(-c3cc(Cl)ccc3C#N)c2N1
REPORTED_RESULT: 973

COMPOUND: CNC1=NS(=O)(=O)c2cccc(-c3ccc(C)cc3Cl)c2N1
REPORTED_RESULT: 92.7

COMPOUND: Cn1cccc(CNC2=NS(=O)(=O)c3cccc(-c4cccc(F)c4Cl)c3N2)c1=O
REPORTED_RESULT: 87.9

COMPOUND: Cc1nn(C)cc1-c1cccc2c1NC(NCc1ccc(Cl)cn1)=NS2(=O)=O
REPORTED_RESULT: 248

COMPOUND: COCCNC1=NS(=O)(=O)c2cccc(-c3ccc(F)cc3Cl)c2N1
REPORTED_RESULT: 296

COMPOUND: COC(C)CNC1=NS(=O)(=O)c2cccc(-c3cccc(F)c3F)c2N1 (racemic)
REPORTED_RESULT: 41.1

COMPOUND: O=S1(=O)N=C(NCc2ncccc2F)Nc2c(-c3cccc(F)c3Cl)cccc21
REPORTED_RESULT: 13.6

COMPOUND: COc1cccc(CNC2=NS(=O)(=O)c3cccc(-c4cccc(F)c4Cl)c3N2)n1
REPORTED_RESULT: 21.3

COMPOUND: CCOC(C)CNC1=NS(=O)(=O)c2cccc(-c3cccc(F)c3Cl)c2N1 (stereo not drawn)
REPORTED_RESULT: 179

COMPOUND: O=S1(=O)N=C(NCc2ccsn2)Nc2c(-c3cccc(F)c3Cl)cccc21
REPORTED_RESULT: 15.6

COMPOUND: O=S1(=O)N=C(NCC2CCC2)Nc2c(-c3cc(F)cc(F)c3F)cccc21
REPORTED_RESULT: 87.9
